Taken from ChEMBL document CHEMBL4190387.

Test: physchem
Details: buffer, pH 6.5
OBSERVED_PROPERTY: chromatographic logD
The response must contain the number and no unit.

Reference set (3 entries):
[
  {
    "MOLECULE_SMILES": "CCN(CC)c1ccc(-c2cc(-c3ccc(C(=O)O)cc3)ccc2OCCCCO)cc1C(C)(C)C",
    "VAL": 4.3
  },
  {
    "MOLECULE_SMILES": "O=C(O)c1ccc(-c2ccc(OCCCCO)c(-c3ccc(N4CCCC4)c(C(F)(F)F)c3)c2)cc1",
    "VAL": 2.8
  },
  {
    "MOLECULE_SMILES": "CCN(CC)c1ccc(-c2cc(-c3ccc(C(=O)O)cc3)ccc2OCCCO)cc1",
    "VAL": 1.9
  }
]

# next molecule below
INPUT: Quick check: chromatographic logD of CC(C)(C)c1cc(-c2cc(-c3ccc(C(=O)O)cc3)ccc2OCCO)ccc1N1CCCC1 ?
OUTPUT: 3.5

---

Assay: in vitro
Settings: human, cryopreserved hepatocytes
Listing of recorded hepatocyte CLint at 1.5 h, 1 µM by entry.
Give a bare numeral; the unit µL/min/1e6 cells is implied.

[
  {
    "MOLECULE_SMILES": "CC(C)(C)c1cc(-c2cc(-c3ccc(C(=O)O)cc3)ccc2OCCO)ccc1N1CCCC1",
    "UNIT_NAME": "µL/min/1e6 cells",
    "VAL": 72
  },
  {
    "MOLECULE_SMILES": "CCN(CC)c1ccc(-c2cc(-c3ccc(C(=O)O)cc3)ccc2OCCCO)cc1",
    "UNIT_NAME": "µL/min/1e6 cells",
    "VAL": 11
  }
]

INPUT: Quick check: hepatocyte CLint at 1.5 h, 1 µM of O=C(O)c1ccc(-c2ccc(OCCCCO)c(-c3ccc(N4CCCC4)c(C(F)(F)F)c3)c2)cc1 ?
OUTPUT: 22

INPUT: Quick check: hepatocyte CLint at 1.5 h, 1 µM of CCN(CC)c1ccc(-c2cc(-c3ccc(C(=O)O)cc3)ccc2OCCCCO)cc1C(C)(C)C ?
OUTPUT: 33
